tested on: RARg:RXRa (NR concentration 270 nM, RXRa partner concentration 90 nM); test: PBM binding z-score (relative to random genomic background probes); higher = stronger binding; sequences stand for … in GC…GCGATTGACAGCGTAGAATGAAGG
Lab note: compare PBM binding z-score against 2. Equal or greater, write Y. Smaller, write N.

SEQ: CATACAGGGTCAGCTAGGCCAGAGTCGGGACGGC
CLASSIFICATION: Y

SEQ: CCTCGGAGGACAACAGGAGGTCAGAGCTGCCAGA
CLASSIFICATION: Y

SEQ: ATATGTAGGTTACATCCAGGTCATTCAGGCTATG
CLASSIFICATION: Y

SEQ: TCATATAAGTAAATGCTAGGTGAAAGTCCGATCT
CLASSIFICATION: N

SEQ: CCTACTGGGCCAAACGTCATTGATTCCAATGCTC
CLASSIFICATION: N

SEQ: TCTGCTAGGTCAGTTGGTCAGCTGACGAGCTGCC
CLASSIFICATION: Y

SEQ: GGAACGAGGGCAAGGTTGATAGCATCTGTCGACG
CLASSIFICATION: N

SEQ: CAAACTAGGTCAAAGTCAAAGTCGGTTTGTGCCA
CLASSIFICATION: Y

SEQ: TTACCAAGGTGAAAGGTCGTTGGTGCACGCCTTG
CLASSIFICATION: Y

SEQ: CCTTACGGGTCACGAGGTTATCGCACGACGAGCG
CLASSIFICATION: Y

SEQ: CCTGCTTGGTCATGGTCAGCTAATCTACAGTATG
CLASSIFICATION: N

SEQ: TCATATAGGTAAAGGTGATAGTCGAACGATATGA
CLASSIFICATION: N

----------
test system: PPARg:RXRa IVT, anti-PPARg (NR concentration 270 nM, RXRa partner concentration 90 nM); assay: PBM binding z-score (relative to random genomic background probes); higher = stronger binding; sequences stand for … in GC…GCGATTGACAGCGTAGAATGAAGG

SEQ: ATATGTAGGTTATCGGGTCGTTCAGTTTGCGCAT
TESTED_SYSTEM: PPARg:RXRa IVT, anti-PPARg (NR concentration 270 nM, RXRa partner concentration 90 nM)
PBM binding z-score: 6.87
//
SEQ: AGTCAAAGTTCACTAGCTAACGTAAGATTCAGCT
TESTED_SYSTEM: PPARg:RXRa IVT, anti-PPARg (NR concentration 270 nM, RXRa partner concentration 90 nM)
PBM binding z-score: 1.99
//
SEQ: CTACCAATGTGAACAAGGTCGTTGATTACTATTC
TESTED_SYSTEM: PPARg:RXRa IVT, anti-PPARg (NR concentration 270 nM, RXRa partner concentration 90 nM)
PBM binding z-score: 0.639
//
SEQ: AATAAAGGGTCACTAGGCCAGAGTAGGTACGAAT
TESTED_SYSTEM: PPARg:RXRa IVT, anti-PPARg (NR concentration 270 nM, RXRa partner concentration 90 nM)
PBM binding z-score: 6.06
//
SEQ: GCAAGCAGGCCATTTGGGTCACTCAATGACGGGC
TESTED_SYSTEM: PPARg:RXRa IVT, anti-PPARg (NR concentration 270 nM, RXRa partner concentration 90 nM)
PBM binding z-score: 2.35
//
SEQ: TTACCAAGGAGAAGGTCGTTGATCCCTCTGTAGA
TESTED_SYSTEM: PPARg:RXRa IVT, anti-PPARg (NR concentration 270 nM, RXRa partner concentration 90 nM)
PBM binding z-score: -0.0762
//
SEQ: CGTCCAAGGTCATAGGAGGTAAGTGAAGACAGAT
TESTED_SYSTEM: PPARg:RXRa IVT, anti-PPARg (NR concentration 270 nM, RXRa partner concentration 90 nM)
PBM binding z-score: 3.38
//
SEQ: AGATTGAGGTTATACGTAGATCAGGGAAGAAAGT
TESTED_SYSTEM: PPARg:RXRa IVT, anti-PPARg (NR concentration 270 nM, RXRa partner concentration 90 nM)
PBM binding z-score: 1.38
//
SEQ: CCTACTGGGCCAAAAAGGGCATTGATGCCGATAA
TESTED_SYSTEM: PPARg:RXRa IVT, anti-PPARg (NR concentration 270 nM, RXRa partner concentration 90 nM)
PBM binding z-score: 2.46
//
SEQ: ATCTCTAGGTAAAGATAGTACAGTGAATGCAAAT
TESTED_SYSTEM: PPARg:RXRa IVT, anti-PPARg (NR concentration 270 nM, RXRa partner concentration 90 nM)
PBM binding z-score: 1.59
//
SEQ: CCTACTGGGCCATCAGGACATTGATATCAACGTT
TESTED_SYSTEM: PPARg:RXRa IVT, anti-PPARg (NR concentration 270 nM, RXRa partner concentration 90 nM)
PBM binding z-score: 3.83
//
SEQ: GCAGACAGTTGAAACGCAGGTAACTCAGGGTGGC
TESTED_SYSTEM: PPARg:RXRa IVT, anti-PPARg (NR concentration 270 nM, RXRa partner concentration 90 nM)
PBM binding z-score: -0.74
//
SEQ: ACTTGCAGGCCAAGGGTCACTCAAGATTAGTCCG
TESTED_SYSTEM: PPARg:RXRa IVT, anti-PPARg (NR concentration 270 nM, RXRa partner concentration 90 nM)
PBM binding z-score: 4.29
//
SEQ: ATCTCTAGGTAACCAAGTTCAGTGACTGCCGAAC
TESTED_SYSTEM: PPARg:RXRa IVT, anti-PPARg (NR concentration 270 nM, RXRa partner concentration 90 nM)
PBM binding z-score: 2.78
//
SEQ: CCTATTAGTTGACCATAAGGGCAACCTAAGCTCG
TESTED_SYSTEM: PPARg:RXRa IVT, anti-PPARg (NR concentration 270 nM, RXRa partner concentration 90 nM)
PBM binding z-score: 0.836
//
SEQ: CGTCCTAGGTCAGCAGGTCAGTGAAAGCGACGTG
TESTED_SYSTEM: PPARg:RXRa IVT, anti-PPARg (NR concentration 270 nM, RXRa partner concentration 90 nM)
PBM binding z-score: 3.44
//
SEQ: GCATATAGGTAATACAACGTGAAAGTCCGATTGT
TESTED_SYSTEM: PPARg:RXRa IVT, anti-PPARg (NR concentration 270 nM, RXRa partner concentration 90 nM)
PBM binding z-score: 2.2
//
SEQ: GCTATTGGTTGAAAGGGCAACCGAATGATTCTCG
TESTED_SYSTEM: PPARg:RXRa IVT, anti-PPARg (NR concentration 270 nM, RXRa partner concentration 90 nM)
PBM binding z-score: 0.624
//
SEQ: TCTGCTAGGACAGTTGGTCAGCTAACGAGCTGCC
TESTED_SYSTEM: PPARg:RXRa IVT, anti-PPARg (NR concentration 270 nM, RXRa partner concentration 90 nM)
PBM binding z-score: 0.0709
//
SEQ: CGAACTAGGGCATGAGTTGATAGCAAATGCCGAT
TESTED_SYSTEM: PPARg:RXRa IVT, anti-PPARg (NR concentration 270 nM, RXRa partner concentration 90 nM)
PBM binding z-score: 6.1
//
SEQ: ATCTGTAGGTAAAGATAGTTCAGTGAATGCAAAT
TESTED_SYSTEM: PPARg:RXRa IVT, anti-PPARg (NR concentration 270 nM, RXRa partner concentration 90 nM)
PBM binding z-score: 1.5
//
SEQ: ATATGCAGGTTAGCTGGGGTCATTCAGACTAGGC
TESTED_SYSTEM: PPARg:RXRa IVT, anti-PPARg (NR concentration 270 nM, RXRa partner concentration 90 nM)
PBM binding z-score: 2.76
//
SEQ: TCCTATAGGTAAATGCTAGGTGAAAGTCCGATCT
TESTED_SYSTEM: PPARg:RXRa IVT, anti-PPARg (NR concentration 270 nM, RXRa partner concentration 90 nM)
PBM binding z-score: 1.3
//
SEQ: TCATATAGGTAATACAAGTGAAAGTCGGCATCTA
TESTED_SYSTEM: PPARg:RXRa IVT, anti-PPARg (NR concentration 270 nM, RXRa partner concentration 90 nM)
PBM binding z-score: 2.25
//
SEQ: TCGAGTAGGTTACCTATGGGGCATTCAGCTTTCT
TESTED_SYSTEM: PPARg:RXRa IVT, anti-PPARg (NR concentration 270 nM, RXRa partner concentration 90 nM)
PBM binding z-score: 2.51
//
SEQ: TCTAGTTGGTCACGGAGGTCTCACACGACGGGTA
TESTED_SYSTEM: PPARg:RXRa IVT, anti-PPARg (NR concentration 270 nM, RXRa partner concentration 90 nM)
PBM binding z-score: 2.67
